molecular target: nucleolin (NCL) (Homo sapiens) (UniProt P19338); experiment: SPR; settings: N at 11-13 = abasic site mimic (dSpacer, 1',2'-dideoxyribose); SPR (Biacore X-100, CM5): 10 mM HEPES, 70 mM KCl, pH 7.4, 25 C; analyte 5-500 uM; two-state reaction fit
Sequence (P19338 whole entry): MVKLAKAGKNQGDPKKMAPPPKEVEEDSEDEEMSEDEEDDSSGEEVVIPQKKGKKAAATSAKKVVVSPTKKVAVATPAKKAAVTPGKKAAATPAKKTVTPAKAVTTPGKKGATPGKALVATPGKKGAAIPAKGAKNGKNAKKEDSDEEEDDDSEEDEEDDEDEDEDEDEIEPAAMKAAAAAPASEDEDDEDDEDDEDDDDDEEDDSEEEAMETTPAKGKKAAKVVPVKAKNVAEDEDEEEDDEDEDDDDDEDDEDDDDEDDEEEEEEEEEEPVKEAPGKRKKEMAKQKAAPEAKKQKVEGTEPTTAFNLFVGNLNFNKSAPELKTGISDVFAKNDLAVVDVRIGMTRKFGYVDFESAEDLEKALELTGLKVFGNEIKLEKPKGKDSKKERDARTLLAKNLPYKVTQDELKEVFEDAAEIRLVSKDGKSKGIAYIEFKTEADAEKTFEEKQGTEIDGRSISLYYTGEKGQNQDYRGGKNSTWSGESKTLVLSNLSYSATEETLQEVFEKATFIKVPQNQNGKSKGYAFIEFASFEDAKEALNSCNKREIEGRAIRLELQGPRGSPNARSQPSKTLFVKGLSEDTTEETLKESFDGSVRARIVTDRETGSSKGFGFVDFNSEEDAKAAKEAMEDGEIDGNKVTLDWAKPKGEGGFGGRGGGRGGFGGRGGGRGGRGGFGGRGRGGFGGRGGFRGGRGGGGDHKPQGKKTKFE
pKd: −log10 of the molar value.
reportedProperty: pKd

macromoleculesequence="GGGGTTGGGGNNNGGGGTTGGGG [TBAG4GS]" tgt="nucleolin (NCL) (Homo sapiens) (UniProt P19338)" recordedvalue=4.49

The measurements presented in this section are drawn from paper PMC9736779.
